- Measured on: TEL-KIT fusion gene transfected cells (Ba/F3)
- Sequence (P10721 26-976 limits assumed, change not shown): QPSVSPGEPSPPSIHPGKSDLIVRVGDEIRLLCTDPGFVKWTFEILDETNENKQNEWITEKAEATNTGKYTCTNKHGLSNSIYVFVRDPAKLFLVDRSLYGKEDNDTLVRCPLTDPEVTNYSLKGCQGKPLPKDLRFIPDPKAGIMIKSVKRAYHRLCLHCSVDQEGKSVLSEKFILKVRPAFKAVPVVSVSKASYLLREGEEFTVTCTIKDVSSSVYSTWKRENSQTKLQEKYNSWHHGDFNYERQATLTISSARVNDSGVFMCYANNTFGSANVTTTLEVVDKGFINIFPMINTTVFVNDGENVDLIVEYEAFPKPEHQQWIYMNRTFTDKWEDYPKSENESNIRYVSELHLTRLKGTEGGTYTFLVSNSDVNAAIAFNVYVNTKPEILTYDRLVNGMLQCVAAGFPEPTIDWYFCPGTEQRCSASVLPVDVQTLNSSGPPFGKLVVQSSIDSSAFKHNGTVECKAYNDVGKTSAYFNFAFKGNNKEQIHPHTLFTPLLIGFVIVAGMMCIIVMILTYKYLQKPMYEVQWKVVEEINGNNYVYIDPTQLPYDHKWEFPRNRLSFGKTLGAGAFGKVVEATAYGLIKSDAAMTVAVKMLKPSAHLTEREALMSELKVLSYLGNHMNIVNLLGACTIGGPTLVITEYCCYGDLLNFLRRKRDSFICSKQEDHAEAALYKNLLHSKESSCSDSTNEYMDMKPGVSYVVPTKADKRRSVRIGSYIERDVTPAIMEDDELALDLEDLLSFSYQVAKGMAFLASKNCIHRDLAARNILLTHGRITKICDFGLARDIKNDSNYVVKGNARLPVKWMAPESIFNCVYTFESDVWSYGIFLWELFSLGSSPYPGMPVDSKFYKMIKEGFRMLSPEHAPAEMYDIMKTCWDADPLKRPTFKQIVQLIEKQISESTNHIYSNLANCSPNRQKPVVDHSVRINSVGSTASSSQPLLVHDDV
- Assay summary: Suppression of proliferation of TEL-KIT fusion gene transfected Ba/F3 cells
- Run parameters: read-out: KIT/BaF3 proliferation inhibition (IC50); TEL-KIT expressing Ba/F3 cells, 72 hours, final concentration 0.1 to 10,000 nM
pIC50: −log10 of the molar value.
Entry flag: Satisfied if pIC50 reaches 6; Not satisfied if it does not.

INSERT INTO measurements (smi, measured_on, class_name) VALUES
  ('Cc1ccc(C(=O)N[C@@H](CO)[C@@H](O)c2ccccc2)cc1CNc1cncc(C2CC2)c1', 'TEL-KIT fusion gene transfected cells (Ba/F3)', 'Not satisfied'),
  ('Cc1ccc(C(=O)N[C@H]2CCCC[C@@H]2O)cc1NCc1cncc(-c2ccc(N)cc2)c1', 'TEL-KIT fusion gene transfected cells (Ba/F3)', 'Satisfied'),
  ('O=C(N[C@H]1CCCC[C@@H]1O)c1ccc(Cl)c(C#Cc2cncc(-c3ncccn3)c2)c1', 'TEL-KIT fusion gene transfected cells (Ba/F3)', 'Satisfied'),
  ('Cc1ccc(C(=O)N[C@H]2CCCC[C@@H]2O)cc1N[C@@H](C)c1cncc(-c2ccncc2)c1', 'TEL-KIT fusion gene transfected cells (Ba/F3)', 'Not satisfied'),
  ('Cc1ccc(C(=O)N[C@@H](CO)[C@@H](O)c2ccccc2)cc1CNc1cncc(Br)c1', 'TEL-KIT fusion gene transfected cells (Ba/F3)', 'Not satisfied'),
  ('Cc1ccc(C(=O)N[C@H]2CCCC[C@@H]2O)cc1N[C@@H](C)c1cncc(-c2cccnc2)c1', 'TEL-KIT fusion gene transfected cells (Ba/F3)', 'Not satisfied'),
  ('Cc1ccc(C(=O)N[C@H]2CCCC[C@@H]2O)cc1NC(=O)c1cnc(NC2CC(F)(F)C2)s1', 'TEL-KIT fusion gene transfected cells (Ba/F3)', 'Not satisfied'),
  ('Cc1ccc(C(=O)N[C@H]2CCCC[C@@H]2O)cc1NC(=O)c1cncc(OC2CCC(F)(F)CC2)c1', 'TEL-KIT fusion gene transfected cells (Ba/F3)', 'Not satisfied'),
  ('Cc1ccc(C(=O)N[C@H]2CCCC[C@@H]2O)cc1NCc1cncc(-c2ccsc2)c1', 'TEL-KIT fusion gene transfected cells (Ba/F3)', 'Not satisfied'),
  ('Cc1ccc(C(=O)N[C@H]2CCCC[C@@H]2O)cc1NC(=O)c1cnc(NC2CC2)s1', 'TEL-KIT fusion gene transfected cells (Ba/F3)', 'Satisfied'),
  ('Cc1ccc(C(=O)N[C@H]2CCCC[C@@H]2O)cc1Nc1ccnc(-c2cccnc2)n1', 'TEL-KIT fusion gene transfected cells (Ba/F3)', 'Satisfied');

====

The following compounds are listed with their measured IC50 values.
- Measured on: TEL-KIT fusion gene transfected cells (Ba/F3)
- Assay summary: Suppression of proliferation of TEL-KIT fusion gene transfected Ba/F3 cells;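 further: viable cells quantified via formazan from tetrazolium reduction, inhibition scaled with 0.1% DMSO control as 0% and medium-only blank as 100%, IC50 from two-parameter logistic fit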
- Run parameters: read-out: KIT/BaF3 proliferation inhibition (IC50); TEL-KIT expressing Ba/F3 cells, 72 hours, final concentration 0.1 to 10,000 nM
Measured attribute: IC50 (nM)

INSERT INTO assay_data (smi, measured_on, units_label, recorded_value) VALUES
  ('CC(C)=Cc1cncc(C(=O)Nc2cc(C(=O)N[C@H]3CCCC[C@@H]3O)ccc2C)c1', 'TEL-KIT fusion gene transfected cells (Ba/F3)', 'nM', 620),
  ('Cc1c(F)cc(C(=O)N[C@H]2CCCC[C@@H]2O)cc1NC(=O)c1cnc(CC2CC2)s1', 'TEL-KIT fusion gene transfected cells (Ba/F3)', 'nM', 650),
  ('Cc1ccc(C(=O)N[C@H]2CCCC[C@@H]2O)cc1NC(=O)c1cncc(-c2cccc(Cl)c2)c1', 'TEL-KIT fusion gene transfected cells (Ba/F3)', 'nM', 310);

====

- Measured on: UniProt P09619
pIC50: −log10 of the molar value.
Reported pIC50 values are given for each entry in this list.
Measured attribute: pIC50

INSERT INTO assay_data (compound, measured_attribute, recorded_value) VALUES
  ('Cc1ccc(C(=O)N[C@H]2CCCC[C@@H]2O)cc1C#Cc1cncc(Br)c1', 'pIC50', 7.39),
  ('Cc1ccc(C(=O)N[C@H]2CCCC[C@@H]2O)cc1NC(=O)c1cncc(OCC2(C)CC2)c1', 'pIC50', 7.92),
  ('COc1ccc(-c2cncc(C(=O)Nc3cc(C(=O)N[C@H]4CCCC[C@@H]4O)ccc3C)c2)c(F)c1', 'pIC50', 7.72),
  ('Cc1ccc(C(=O)N[C@H]2CCCC[C@@H]2O)cc1NCc1cnc(N[C@H]2CCOC2)nc1', 'pIC50', 7.49),
  ('O=C(Nc1cc(CNc2cncc(-c3ncccn3)c2)ccc1F)N[C@@H]1CCCC[C@@H]1O', 'pIC50', 7.34),
  ('Cc1ccc(C(=O)N[C@@H](CO)[C@@H](O)c2ccccc2)cc1CNc1cncc(-c2ccccc2)n1', 'pIC50', 7.60),
  ('O=C(N[C@H]1CCCC[C@@H]1O)c1ccc(Cl)c(COc2cncc(-c3ncccn3)c2)c1', 'pIC50', 6.70),
  ('Cc1ccc(C(=O)N[C@H]2CCCC[C@@H]2O)cc1/C=C(\F)c1ccc(NCC2CC2)nc1', 'pIC50', 7.52),
  ('Cc1ccc(C(=O)N[C@H]2CCCC[C@@H]2O)cc1NC(=O)c1cncc(-c2ccccc2OC(F)(F)F)c1', 'pIC50', 6.80),
  ('Cc1ccc(C(=O)NCC(O)C(C)(C)C)cc1/C=C(\F)c1cncc(CN2CCN(C)CC2)c1 (centres unmarked)', 'pIC50', 7.42),
  ('Cc1ccc(C(=O)N[C@@H](CO)[C@@H](O)c2ccccc2)cc1Nc1ccnc(-c2cncc3ccccc23)n1', 'pIC50', 6.92),
  ('Cc1ccc(C(=O)N[C@H]2CCCC[C@@H]2O)cc1NCc1ccc(NC(C)C)nc1', 'pIC50', 6.77),
  ('Cc1ccc(C(=O)N[C@H]2CCCC[C@@H]2O)cc1NCc1cnn2ccsc12', 'pIC50', 6.64),
  ('CCCc1ncc(C(=O)Nc2cc(C(=O)N[C@H]3CCCC[C@@H]3O)ccc2C)s1', 'pIC50', 6.66),
  ('Cc1ccc(C(=O)N[C@H]2CCCC[C@@H]2O)cc1C#Cc1ccc(N)nc1', 'pIC50', 7.03),
  ('Cc1ccc(C(=O)N[C@H]2CCCC[C@@H]2O)cc1NCc1cncc(Br)c1', 'pIC50', 6.82),
  ('CNc1ncc(/C(F)=C/c2cc(C(=O)N[C@H]3CCCC[C@@H]3O)ccc2F)cn1', 'pIC50', 6.89),
  ('Cc1ccc(C(=O)N[C@H]2CCCC[C@@H]2O)cc1NCc1cnc(N)nc1', 'pIC50', 7.08),
  ('Cc1ncc(C(=O)N[C@H]2CCCC[C@@H]2O)cc1/C=C(\F)c1cncc(N2CCOCC2)c1', 'pIC50', 7.17),
  ('Cc1ccc(C(=O)N[C@H]2CCCC[C@@H]2O)cc1C#Cc1cncc(-c2ccccn2)c1', 'pIC50', 8.27);

====

For PDGFR-β (Homo sapiens (Human)), measured pIC50 is reported for the entries below.
pIC50: −log10 of the molar value.
Measured attribute: pIC50

INSERT INTO measurements (compound, recorded_value) VALUES
  ('Cc1ccc(C(=O)N[C@H]2CCCC[C@@H]2O)cc1NCc1cnc(N[C@@H]2CCOC2)nc1', 6.92),
  ('Cc1ccc(C(=O)N[C@H]2CCCC[C@@H]2O)cc1NC(=O)c1cnc(NC2(C)CC2)s1', 7.00),
  ('Cc1ccc(C(=O)N[C@H]2CCCC[C@@H]2O)cc1C(C)Nc1cncc(-c2ccccc2)n1 (stereo partly shown)', 6.96),
  ('Cc1ccc(C(=O)N[C@H]2CCCC[C@@H]2O)cc1/C=C(\F)c1cnc2cccnn12', 8.23),
  ('Cc1ccc(C(=O)N[C@H]2CCCC[C@@H]2O)cc1NC(=O)c1cncc(-c2ccccc2Cl)c1', 6.85),
  ('Cc1ccc(C(=O)N[C@H]2CCCC[C@@H]2O)cc1NC(=O)c1cncc(-c2cccc(Cl)c2)c1', 7.77),
  ('Cc1ccc(C(=O)N[C@H]2CCCC[C@@H]2O)cc1OC(C)c1cncc(-c2ncccn2)c1 (stereo partly shown)', 6.59),
  ('Cc1ccc(C(=O)N[C@H]2CCCC[C@@H]2O)cc1NC(=O)c1cncc(OC2CCC(F)(F)CC2)c1', 6.77),
  ('Cc1ccc(NC(=O)N[C@@H]2CCCC[C@@H]2O)cc1CNc1cncc(-c2ncccn2)c1', 8.59),
  ('Cc1ccc(C(=O)N[C@@H](CO)[C@@H](O)c2ccccc2)cc1CNc1cncc(C2CC2)c1', 6.47),
  ('Cc1ccc(C(=O)N[C@H]2CCCC[C@@H]2O)cc1NCc1cnc(N)cn1', 6.31),
  ('Cc1ccc(C(=O)N[C@H]2CCCC[C@@H]2O)cc1C#Cc1cncc(-c2ccccc2F)n1', 7.60),
  ('O=C(Nc1ccc(F)c(CNc2cncc(-c3ncccn3)c2)c1)N[C@@H]1CCCC[C@@H]1O', 7.80),
  ('O=C(N[C@H]1CCCC[C@@H]1O)c1ccc(Cl)c(C#Cc2cncc(-c3ncccn3)c2)c1', 6.59),
  ('Cc1ccc(C(=O)N[C@H]2CCCC[C@@H]2O)cc1/C=C(\F)c1cnc(N)cn1', 7.51),
  ('Cc1ccc(C(=O)N[C@H]2CCCC[C@@H]2O)cc1/C=C(\F)c1ccc(NCCN(C)C)nc1', 6.92),
  ('O=C(Nc1cc(C(=O)N[C@H]2CCCC[C@@H]2O)ccc1Cl)c1cncc(OCC2CC2)c1', 6.72),
  ('Cc1ccc(C(=O)N[C@H]2CCCC[C@@H]2O)cc1OCc1cncc(-c2ncccn2)c1', 7.31),
  ('Cc1ccc(C(=O)N[C@H]2CCCC[C@@H]2O)cc1NC(=O)c1cncc(-c2ccc(Cl)cc2)c1', 7.59),
  ('Cc1ccc(C(=O)N[C@H]2CCCC[C@@H]2O)cc1C#Cc1cncc(-c2ccc(F)cc2)n1', 7.38),
  ('Cc1ccc(C(=O)N[C@@H](CO)[C@@H](O)c2ccccc2)cc1N1CCc2nc(N)ncc2C1', 8.30),
  ('Cc1ccc(C(=O)N[C@H]2CCCC[C@@H]2O)cc1NC(=O)c1cncc(-c2cc(F)c(F)c(F)c2)c1', 6.64),
  ('Cc1ccc(C(=O)N[C@H]2CCCC[C@@H]2O)cc1NC(=O)c1cncc(N(C)C2CC2)c1', 7.38),
  ('Cc1ccc(C(=O)N[C@H]2CCCC[C@@H]2O)cc1C#Cc1cncc(-c2ncccn2)c1', 8.19),
  ('Cc1ccc(C(=O)N[C@H]2CCCC[C@@H]2O)cc1NCc1ccc(NC2COC2)nc1', 7.16),
  ('Cc1ccc(C(=O)N[C@H]2CCCC[C@@H]2O)cc1NC(=O)c1cncc(NCC2CC2)c1', 7.66),
  ('Cc1ccc(C(=O)N[C@H]2CCCC[C@@H]2O)cc1C#Cc1cncc(-c2ccccc2)n1', 7.82),
  ('Cc1ccc(C(=O)N[C@H]2CCCC[C@@H]2O)cc1C#Cc1cncc(-c2ccccc2)c1', 7.34);
